Property measured: pKi
Worth noting: pKi values are minus log10 of concentrations stated in mol/L.

Please tell me: pKi of `CCCN1C[C@H](CSC)C[C@@H]2c3cccc4[nH]cc(c34)C[C@H]21` , system Alpha-2C adrenergic receptor (Homo sapiens, UniProt P18825)?
7.17

Please tell me: pKi of CN(C)C1CCc2cc(O)c(O)cc2C1 (stereo not given) , system Alpha-2C adrenergic receptor (Homo sapiens, UniProt P18825)?
8.22

Please tell me: pKi of `CCN(CC)C(=O)N[C@H]1C[C@@H]2c3cccc4[nH]cc(c34)C[C@H]2N(C)C1` , system Alpha-2C adrenergic receptor (Homo sapiens, UniProt P18825)?
9.12

Please tell me: pKi of C=CCN1CC(C(=O)N(CCCN(C)C)C(=O)NCC)CC2c3cccc4[nH]cc(c34)CC21 (stereo not given) , system Alpha-2C adrenergic receptor (Homo sapiens, UniProt P18825)?
7.65

Please tell me: pKi of `CCCN(CCC)CCc1cccc2c1CC(=O)N2` , system Alpha-2C adrenergic receptor (Homo sapiens, UniProt P18825)?
5.92

Please tell me: pKi of `C=CCN1CCc2nc(N)sc2CC1` , system Alpha-2C adrenergic receptor (Homo sapiens, UniProt P18825)?
7.37

Please tell me: pKi of `Oc1ccc2[nH]cc(CCCCN3CC=C(c4ccccc4)CC3)c2c1` , system Alpha-2C adrenergic receptor (Homo sapiens, UniProt P18825)?
8.75

Please tell me: pKi of `CN1CCc2cccc3c2[C@H]1Cc1ccc(O)c(O)c1-3` , system Alpha-2C adrenergic receptor (Homo sapiens, UniProt P18825)?
7.44
